biological target: biotinylated His-Avi-TEAD (194-411) (UniProt P28347); assay: SPR, single cycle kinetics, biotinylated TEAD captured on the chip, peptide injected at 0.044, 0.133, 0.4, 1.2, 3.6 nM
Quantity name: Kd (nM)

binder="GSPDEYIERAKECCKKQDIQCCLRIFDESGDPNVMLICLFCW (designed binder) [peptide of SEQ ID NO: 10]" quantity_name=Kd value_measured=0.372
